measuredOn: THR alpha-LBD (Homo sapiens)
Construct: except that THR alpha-LBD of a final concentration 0.25 nM was used; purchased Invitrogen PV4687
Sequence (P10827 163-410 isoform P10827-2 limits assumed, other chains not shown): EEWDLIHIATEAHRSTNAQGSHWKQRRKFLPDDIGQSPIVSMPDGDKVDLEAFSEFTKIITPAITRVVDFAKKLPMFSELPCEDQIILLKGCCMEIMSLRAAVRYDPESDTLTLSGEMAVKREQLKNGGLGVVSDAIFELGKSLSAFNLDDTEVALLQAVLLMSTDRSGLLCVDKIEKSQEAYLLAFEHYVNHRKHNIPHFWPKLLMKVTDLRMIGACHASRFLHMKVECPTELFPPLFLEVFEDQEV
methodSummary: THR-α Coactivator Peptide Recruitment Assay (LanthaScreen TR-FRET)
Format: biochemical
conditionInfo: TR-FRET coactivator recruitment, THR alpha-LBD 0.25 nM
readout: THRα Emax

Recorded results for 10 compounds are shown here.
CS(=O)(=O)CC1(NS(=O)(=O)c2cc(Oc3c(Cl)cc(-n4nc(C(F)F)c(=O)[nH]c4=O)cc3Cl)ccc2O)CC1	B (40~85)
O=c1[nH]c(=O)n(-c2cc(Cl)c(Oc3cc(S(=O)(=O)C4CC4)c(O)cn3)c(Cl)c2)nc1C(F)F	A (85~110)
O=c1[nH]c(=O)n(-c2cc(Cl)c(Cc3ccc(O)c(S(=O)(=O)NC4CS(=O)(=O)C4)c3)c(Cl)c2)nc1C(F)F	A (85~110)
O=c1[nH]c(=O)n(-c2cc(Cl)c(Oc3cc(S(=O)(=O)N[C@H]4C[C@@H](O)C4)c(O)cn3)c(Cl)c2)nc1C(F)F	B (40~85)
O=c1[nH]c(=O)n(-c2cc(Cl)c(Oc3ccc(O)c(S(=O)(=O)N[C@@H]4CCN(S(=O)(=O)C5CC5)C4)c3)c(Cl)c2)nc1C(F)F	B (40~85)
O=c1[nH]c(=O)n(-c2cc(Cl)c(Oc3ccc(O)c(S(=O)(=O)NC4CC4)c3)c(Cl)c2)nc1C(F)F	A (85~110)
O=C(CNS(=O)(=O)c1cc(Oc2c(Cl)cc(-n3nc(C(F)F)c(=O)[nH]c3=O)cc2Cl)ccc1O)N1CCC1	B (40~85)
CC1(C)CC(NS(=O)(=O)c2cc(Oc3c(Cl)cc(-n4nc(C(F)F)c(=O)[nH]c4=O)cc3Cl)ncc2O)C1	B (40~85)
O=C(N[C@H]1CCN(S(=O)(=O)c2cc(Oc3c(Cl)cc(-n4nc(C(F)F)c(=O)[nH]c4=O)cc3Cl)ccc2O)C1)C1CC1	B (40~85)
O=c1[nH]c(=O)n(-c2cc(Cl)c(Oc3cc(S(=O)(=O)N[C@@H]4CC[C@H]4O)c(O)cn3)c(Cl)c2)nc1C(F)F (stereo in doubt)	C (<40)

Quick check: THRα Emax of CNS(=O)(=O)c1cc(Oc2c(Cl)cc(-n3nc(C(F)F)c(=O)[nH]c3=O)cc2Cl)ncc1OC ?
C (<40)

Quick check: THRα Emax of CS(=O)(=O)c1cc(Oc2c(Cl)cc(-n3nc(C(F)F)c(=O)[nH]c3=O)cc2Cl)ncc1O ?
A (85~110)

Quick check: THRα Emax of O=c1[nH]c(=O)n(-c2cc(Cl)c(Oc3cc(S(=O)(=O)C4CCC4)c(O)cn3)c(Cl)c2)nc1C(F)F ?
A (85~110)
